- ASSAY_OVERVIEW: Mean intrinsic dissolution studies
- Type: physicochemical
- TEST_PARAMETERS: Acetate buffer, pH 4.5
Listing: Mean intrinsic dissolution rate of selected compounds
METRIC_NAME: Mean intrinsic dissolution rate (mg/min/cm^2)

CC[C@H]1OC(=O)[C@@](C)(F)C(=O)[C@H](C)[C@@H](O[C@@H]2O[C@H](C)C[C@H](N(C)C)[C@H]2O)[C@](C)(OC)C[C@@H](C)C(=O)[C@H](C)[C@H]2N(CCCCn3cc(-c4cccc(N)c4)nn3)C(=O)O[C@]12C [Form I Batch B]	2.8
CC[C@H]1OC(=O)[C@@](C)(F)C(=O)[C@H](C)[C@@H](O[C@@H]2O[C@H](C)C[C@H](N(C)C)[C@H]2O)[C@@](C)(OC)C[C@@H](C)C(=O)[C@H](C)[C@H]2N(CCCCn3cc(-c4cccc(N)c4)nn3)C(=O)O[C@]12C [Form I Batch C]	2.7
CC[C@H]1OC(=O)[C@@](C)(F)C(=O)[C@H](C)[C@@H](O[C@@H]2O[C@H](C)C[C@H](N(C)C)[C@H]2O)[C@](C)(OC)C[C@@H](C)C(=O)[C@H](C)[C@H]2N(CCCCn3cc(-c4cccc(N)c4)nn3)C(=O)O[C@]12C [Form II, solithromycin]	2.7
CC[C@H]1OC(=O)[C@@](C)(F)C(=O)[C@H](C)[C@@H](O[C@@H]2O[C@H](C)C[C@H](N(C)C)[C@H]2O)[C@](C)(OC)C[C@@H](C)C(=O)[C@H](C)[C@H]2N(CCCCn3cc(-c4cccc(N)c4)nn3)C(=O)O[C@]12C [Form I Batch A]	2.1

====

- ASSAY_OVERVIEW: Oral pharmacokinetics in Balb/c mice, single dose 20 or 100 mg/kg
- TEST_PARAMETERS: female, Balb/c, mouse, plasma, po, 100 mg/kg
METRIC_NAME: concentration at 0.25 h (ng/mL)

CC[C@H]1OC(=O)[C@@](C)(F)C(=O)[C@H](C)[C@@H](O[C@@H]2O[C@H](C)C[C@H](N(C)C)[C@H]2O)[C@](C)(OC)C[C@@H](C)C(=O)[C@H](C)[C@H]2N(CCCCn3cc(-c4cccc(N)c4)nn3)C(=O)O[C@]12C [Form II, solithromycin]	7300

====

- ASSAY_OVERVIEW: Further oral pharmacokinetic study in female Balb/c mice, 5, 10 and 20 mg/kg
- TEST_PARAMETERS: mouse, plasma, 5 mg/kg, t½, Mean, 5 mg/kg single oral dose
METRIC_NAME: half-life (min)

CC[C@H]1OC(=O)[C@@](C)(F)C(=O)[C@H](C)[C@@H](O[C@@H]2O[C@H](C)C[C@H](N(C)C)[C@H]2O)[C@](C)(OC)C[C@@H](C)C(=O)[C@H](C)[C@H]2N(CCCCn3cc(-c4cccc(N)c4)nn3)C(=O)O[C@]12C [Form II, solithromycin]	70.2

====

- ASSAY_OVERVIEW: in vivo
- TEST_PARAMETERS: male, Balb/c, mouse, po, 20 mg/kg
METRIC_NAME: concentration at 0 h (ng/mL)

CC[C@H]1OC(=O)[C@@](C)(F)C(=O)[C@H](C)[C@@H](O[C@@H]2O[C@H](C)C[C@H](N(C)C)[C@H]2O)[C@](C)(OC)C[C@@H](C)C(=O)[C@H](C)[C@H]2N(CCCCn3cc(-c4cccc(N)c4)nn3)C(=O)O[C@]12C [Form I, solithromycin]	0

====

- ASSAY_OVERVIEW: Oral pharmacokinetics in Balb/c mice, single dose 20 or 100 mg/kg
- TEST_PARAMETERS: female, Balb/c, mouse, plasma, po, 100 mg/kg
METRIC_NAME: concentration at 0.5 h (ng/mL)

CC[C@H]1OC(=O)[C@@](C)(F)C(=O)[C@H](C)[C@@H](O[C@@H]2O[C@H](C)C[C@H](N(C)C)[C@H]2O)[C@](C)(OC)C[C@@H](C)C(=O)[C@H](C)[C@H]2N(CCCCn3cc(-c4cccc(N)c4)nn3)C(=O)O[C@]12C [Form II, solithromycin]	10500

====

- ASSAY_OVERVIEW: Oral pharmacokinetics in Balb/c mice, single dose 20 or 100 mg/kg
- TEST_PARAMETERS: male, Balb/c, mouse, plasma, po, 100 mg/kg
METRIC_NAME: concentration at 0 h

CC[C@H]1OC(=O)[C@@](C)(F)C(=O)[C@H](C)[C@@H](O[C@@H]2O[C@H](C)C[C@H](N(C)C)[C@H]2O)[C@](C)(OC)C[C@@H](C)C(=O)[C@H](C)[C@H]2N(CCCCn3cc(-c4cccc(N)c4)nn3)C(=O)O[C@]12C [Form II, solithromycin]	0 ng/mL

====

- ASSAY_OVERVIEW: Further oral pharmacokinetic study in female Balb/c mice, 5, 10 and 20 mg/kg
- TEST_PARAMETERS: mouse, plasma, 20 mg/kg, t½, Mean, 20 mg/kg single oral dose
METRIC_NAME: half-life

CC[C@H]1OC(=O)[C@@](C)(F)C(=O)[C@H](C)[C@@H](O[C@@H]2O[C@H](C)C[C@H](N(C)C)[C@H]2O)[C@](C)(OC)C[C@@H](C)C(=O)[C@H](C)[C@H]2N(CCCCn3cc(-c4cccc(N)c4)nn3)C(=O)O[C@]12C [Form II, solithromycin]	2.46 h

====

- ASSAY_OVERVIEW: in vivo
- TEST_PARAMETERS: female, Balb/c, mouse, po, 10 mg/kg, t½
METRIC_NAME: half-life (h)

CC[C@H]1OC(=O)[C@@](C)(F)C(=O)[C@H](C)[C@@H](O[C@@H]2O[C@H](C)C[C@H](N(C)C)[C@H]2O)[C@](C)(OC)C[C@@H](C)C(=O)[C@H](C)[C@H]2N(CCCCn3cc(-c4cccc(N)c4)nn3)C(=O)O[C@]12C [Form I, solithromycin]	2.95

====

- ASSAY_OVERVIEW: Further oral pharmacokinetic study in female Balb/c mice, 5, 10 and 20 mg/kg
- TEST_PARAMETERS: mouse, plasma, 10 mg/kg, t½, Median, 10 mg/kg single oral dose
METRIC_NAME: half-life (h)

CC[C@H]1OC(=O)[C@@](C)(F)C(=O)[C@H](C)[C@@H](O[C@@H]2O[C@H](C)C[C@H](N(C)C)[C@H]2O)[C@](C)(OC)C[C@@H](C)C(=O)[C@H](C)[C@H]2N(CCCCn3cc(-c4cccc(N)c4)nn3)C(=O)O[C@]12C [Form II, solithromycin]	1.53

====

- ASSAY_OVERVIEW: Oral pharmacokinetics in Balb/c mice, single dose 20 or 100 mg/kg
- TEST_PARAMETERS: female, Balb/c, mouse, plasma, po, 100 mg/kg
METRIC_NAME: AUC(0-t) (ng·h/mL)

CC[C@H]1OC(=O)[C@@](C)(F)C(=O)[C@H](C)[C@@H](O[C@@H]2O[C@H](C)C[C@H](N(C)C)[C@H]2O)[C@](C)(OC)C[C@@H](C)C(=O)[C@H](C)[C@H]2N(CCCCn3cc(-c4cccc(N)c4)nn3)C(=O)O[C@]12C [Form II, solithromycin]	55000

====

- TEST_PARAMETERS: female, Balb/c, mouse, in vivo, po, 10 mg/kg
METRIC_NAME: Cmax (ng/mL)

CC[C@H]1OC(=O)[C@@](C)(F)C(=O)[C@H](C)[C@@H](O[C@@H]2O[C@H](C)C[C@H](N(C)C)[C@H]2O)[C@](C)(OC)C[C@@H](C)C(=O)[C@H](C)[C@H]2N(CCCCn3cc(-c4cccc(N)c4)nn3)C(=O)O[C@]12C [Form I, solithromycin]	4680

====

- ASSAY_OVERVIEW: Further oral pharmacokinetic study in female Balb/c mice, 5, 10 and 20 mg/kg
- TEST_PARAMETERS: mouse, plasma, 5 mg/kg, Tmax, Mean, 5 mg/kg single oral dose
METRIC_NAME: Tmax (h)

CC[C@H]1OC(=O)[C@@](C)(F)C(=O)[C@H](C)[C@@H](O[C@@H]2O[C@H](C)C[C@H](N(C)C)[C@H]2O)[C@](C)(OC)C[C@@H](C)C(=O)[C@H](C)[C@H]2N(CCCCn3cc(-c4cccc(N)c4)nn3)C(=O)O[C@]12C [Form II, solithromycin]	1.2

====

- ASSAY_OVERVIEW: in vivo
- TEST_PARAMETERS: male, Balb/c, mouse, po, 100 mg/kg
METRIC_NAME: concentration at 0.5 h (ng/mL)

CC[C@H]1OC(=O)[C@@](C)(F)C(=O)[C@H](C)[C@@H](O[C@@H]2O[C@H](C)C[C@H](N(C)C)[C@H]2O)[C@](C)(OC)C[C@@H](C)C(=O)[C@H](C)[C@H]2N(CCCCn3cc(-c4cccc(N)c4)nn3)C(=O)O[C@]12C [Form I, solithromycin]	10700
